test system: DU145 cells; assay: Antiproliferative assay in DU145 cells, WST-1 cell proliferation assay, 96 hours (GI50); type: cell-based; settings: Homo sapiens, DU-145, 96 hours post-treatment, triplicate
The entries below are paired with their reported GI50.

smiles.input	system.name	GI50
COc1cc2c(cc1O)CCN(S(=O)(=O)c1ccccc1OC)C2=O	DU145 cells	> 100 µM
COc1cc2c(cc1O)CCN(Cc1cccc(NC(C)=O)c1)C2	DU145 cells	> 100 µM
COc1cc2c(cc1O)CCN(Cc1cccc(OC(C)C)c1)C2	DU145 cells	> 100 µM
COc1cc(OC)cc(C(=O)N2CCc3cc(O)c(OC)cc3C2)c1	DU145 cells	< 10 µM
COc1cc2c(cc1O)CCN(Cc1cccc(OC(F)(F)F)c1)C2	DU145 cells	50 to 100 µM
COc1ccc(C(=O)N2CCc3cc(OCc4ccccc4)c(OC)cc3C2=O)cc1OC	DU145 cells	> 100 µM
COc1cc2c(cc1O)CCN(S(=O)(=O)c1cccc(C)c1)C2	DU145 cells	> 100 µM
COc1cc2c(cc1O)CCN(S(=O)(=O)c1cccc(OC(F)(F)F)c1)C2	DU145 cells	> 100 µM
COc1ccc(CN2CCc3cc(OCc4ccccc4)c(OC)cc3C2)cc1	DU145 cells	50 to 100 µM

---

tested on: DU145 cells; assay: Antiproliferative assay in DU145 cells, WST-1 cell proliferation assay, 96 hours (GI50); assay type: cell-based; details: Homo sapiens, DU-145, 96 hours post-treatment, triplicate
readout.type: GI50

smiles.input	readout.type	observed.measurement
COc1ccc(C(=O)N2CCc3cc(O)c(OC)cc3C2=O)cc1	GI50	> 100 µM
COc1cc2c(cc1O)CCN(C(=O)c1cc(OC)c(OC)c(OC)c1)C2	GI50	< 10 µM
COc1cc2c(cc1O)CCN(C(=O)c1ccc(C#N)cc1)C2=O	GI50	> 100 µM
COc1cc(OC)c(OC)cc1CN1CCc2cc(OCc3ccccc3)c(OC)cc2C1	GI50	10 to 50 µM
COc1cc2c(cc1OCc1ccccc1)CCN(Cc1cccc(N)c1)C2	GI50	> 100 µM
COc1cc2c(cc1O)CCN(Cc1cc(OC)c(OC)c(OC)c1)C2=O	GI50	> 100 µM
COc1cc2c(cc1O)CCN(Cc1cccc(O)c1)C2	GI50	> 100 µM
COc1ccc(CN2CCc3cc(O[Si](C(C)C)(C(C)C)C(C)C)c(OC)cc3C2=O)cc1	GI50	> 100 µM
COc1cc2c(cc1OCc1ccccc1)CCN(Cc1cc(OC)c(OC)c(OC)c1)C2	GI50	10 to 50 µM

---

tested on: DU145 cells; assay: Antiproliferative assay in DU145 cells, WST-1 cell proliferation assay, 96 hours (GI50); format: cell-based; conditions: Homo sapiens, DU-145, 96 hours post-treatment, triplicate

smiles.input	system.name	GI50
COc1cc(OC)cc(C(=O)N2CCc3cc(OCc4ccccc4)c(OC)cc3C2)c1	DU145 cells	10 to 50 µM
COc1cc2c(cc1O)CCN(S(=O)(=O)c1ccccc1OC)C2	DU145 cells	> 100 µM
COc1ccc(OC)c(CN2CCc3cc(OCc4ccccc4)c(OC)cc3C2)c1	DU145 cells	10 to 50 µM
COc1cc2c(cc1O)CCN(Cc1cccc(Oc3ccccc3)c1)C2	DU145 cells	10 to 50 µM
COc1ccc(OC)c(CN2CCc3cc(O)c(OC)cc3C2)c1	DU145 cells	50 to 100 µM
COc1cc2c(cc1OCc1ccccc1)CCN(C(=O)c1ccccc1OC)C2=O	DU145 cells	> 100 µM
COc1cc2c(cc1O)CCN(C(=O)c1ccc(OC)c(OC)c1)C2=O	DU145 cells	< 10 µM
COc1cc2c(cc1OCc1ccccc1)CCN(Cc1cccc(Oc3ccccc3)c1)C2	DU145 cells	> 100 µM
COc1cc2c(cc1O)CCN(Cc1cccc(F)c1)C2	DU145 cells	> 100 µM
COc1cc2c(cc1OCc1ccccc1)CCN(C(=O)c1ccc(C#N)cc1)C2=O	DU145 cells	> 100 µM
COc1cc2c(cc1O)CCN(Cc1cccc(Cl)c1)C2	DU145 cells	50 to 100 µM
COc1cc2c(cc1O)CCN(Cc1ccc(C#N)cc1)C2	DU145 cells	> 100 µM
COc1cc(CN2CCc3cc(OCc4ccccc4)c(OC)cc3C2)cc(OC)c1	DU145 cells	> 100 µM
COc1ccc(C(=O)N2CCc3cc(OCc4ccccc4)c(OC)cc3C2)cc1	DU145 cells	10 to 50 µM
COc1cc2c(cc1OCc1ccccc1)CCN(S(=O)(=O)c1cccc(C)c1)C2	DU145 cells	> 100 µM
COc1cc2c(cc1O[Si](C(C)C)(C(C)C)C(C)C)CCN(S(=O)(=O)c1cccc(C#N)c1)C2	DU145 cells	> 100 µM
COc1cc(CN2CCc3cc(O)c(OC)cc3C2=O)cc(OC)c1	DU145 cells	> 100 µM
COc1ccccc1CN1CCc2cc(OCc3ccccc3)c(OC)cc2C1	DU145 cells	10 to 50 µM
